Biological target: T1, Anti-PSMA Fab (SEQ ID NOs: 19, 20)
T1 construct: Biotinylated and captured on neutravidin coated plates in the phage ELISA; also called 006 PSMA Fab
Test: phage ELISA; captured PSMA Fab pre-incubated with PSMA antigen as competitor, anti-M13 HRP detection
Where no end group is shown, it is not given here.
Readout label: Phage binding ELISA, Anti-PSMA Fab signal in the presence of PSMA
The answer should be a number; do not append a unit.

Specify reported Phage binding ELISA, Anti-PSMA Fab signal in the presence of PSMA for the binder shown: YEKWCTPAWMCEYQ (Clonal phage of the peptide-180 library, tested as crude supernatant; not shown: pIII of the bacteriophage, to which the peptide is fused) [Phage-2166] 0.0648

Specify reported Phage binding ELISA, Anti-PSMA Fab signal in the presence of PSMA for the binder shown: ENKWCIPTWMCAHE (cysteine pairing not given here; also: displayed on phage, fused to pIII, Clonal phage of the peptide-180 library, tested as crude supernatant; not shown: pIII of the bacteriophage, to which the peptide is fused) [Phage-2173] 0.0646

Specify reported Phage binding ELISA, Anti-PSMA Fab signal in the presence of PSMA for the binder shown: GEKWCIPEWMCVHL (Clonal phage of the peptide-180 library, tested as crude supernatant; not shown: pIII of the bacteriophage, to which the peptide is fused) [Phage-2168] 0.065

Specify reported Phage binding ELISA, Anti-PSMA Fab signal in the presence of PSMA for the binder shown: VQKWCVPEWMCGSW (Clonal phage of the peptide-180 library, tested as crude supernatant; not shown: pIII of the bacteriophage, to which the peptide is fused) [Phage-2167] 0.0837

Specify reported Phage binding ELISA, Anti-PSMA Fab signal in the presence of PSMA for the binder shown: GSHWCIPPWMCQMS (Clonal phage of the peptide-180 library, tested as crude supernatant; not shown: pIII of the bacteriophage, to which the peptide is fused) [Phage-2163] 0.0821

Specify reported Phage binding ELISA, Anti-PSMA Fab signal in the presence of PSMA for the binder shown: GDRLCVPEWMCEML (Clonal phage of the peptide-180 library, tested as crude supernatant; not shown: pIII of the bacteriophage, to which the peptide is fused) [Phage-2171] 0.0685

Specify reported Phage binding ELISA, Anti-PSMA Fab signal in the presence of PSMA for the binder shown: VIPWCIPEWMCTAS (Clonal phage of the peptide-180 library, tested as crude supernatant; not shown: pIII of the bacteriophage, to which the peptide is fused) [Phage-2175] 0.0692
